Would you kindly list Ratio OD(Variant)/OD(WT) for each of these binders?
# assay-target: HRgpA-6H (Porphyromonas gingivalis) (UniProt P28784)
# protocol-notes: ELISA, coated HRgpA-6H
Answers are plain numbers.

>>> result("KB001 mouse Fab VH G53S (Fab, V domains shown) VH: EVQLKQSGPGLVAPSQSLSITCTVSGFSLSIYSVHWVRQPPGKGLEWLGMIWSGGSSDYNSALKSRLSISKDNSKSQVFLKMNSLQTDDTAMYYCARNGNFYAMDYWGQGTSVTVSS VL: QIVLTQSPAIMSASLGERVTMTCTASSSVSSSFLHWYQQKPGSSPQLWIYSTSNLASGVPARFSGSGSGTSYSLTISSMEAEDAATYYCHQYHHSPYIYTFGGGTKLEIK")
0.861

Attention now shifts to the item below.
Can you look up the measured Ratio OD(Variant)/OD(WT) of KB001 mouse Fab VL S32W (Fab, V domains shown) VH: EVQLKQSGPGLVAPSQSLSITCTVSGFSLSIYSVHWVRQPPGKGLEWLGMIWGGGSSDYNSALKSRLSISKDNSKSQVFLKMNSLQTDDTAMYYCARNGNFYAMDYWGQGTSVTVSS VL: QIVLTQSPAIMSASLGERVTMTCTASSSVSSWFLHWYQQKPGSSPQLWIYSTSNLASGVPARFSGSGSGTSYSLTISSMEAEDAATYYCHQYHHSPYIYTFGGGTKLEIK for me?
0.856

Recorded values, source patent US20240400654A1.
